TEST_DETAILS: Study MPKF: plasma pharmacokinetics of MDMA and MDA, single 120 mg MDMA·HCl, fasted/fed
Format: in vivo, human
DETAILS: human, plasma, oral, 120 mg, fed treatment group; 4 h; read-out: PK plasma concentration, Geom. Mean
QUANTITY_NAME: concentration at 4 h
# answer = value followed by unit

Documented concentration at 4 h of CNC(C)Cc1ccc2c(c1)OCO2 (stereo not shown) : 222 ng/mL

* * *

TEST_DETAILS: Study MPKF: plasma pharmacokinetics of MDMA and MDA, single 120 mg MDMA·HCl, fasted/fed
Type: in vivo, human
DETAILS: human, plasma, po, 120 mg, Fasted N = 15; 120 mg MDMA·HCl; preliminary; arithmetic mean; read-out: t1/2 (converted)
Experimental: The MPKF was a Phase 1, open-label, randomized sequence, multi-dose, 2-period crossover food effect study in 16 healthy individuals. The MPKF study evaluated plasma concentrations of both MDMA and the active metabolite 3,4-methylenedioxyamphetamine (MDA). […] Sample Collection: Blood samples were collected at various time points up to 72 hours after dosing. The samples were analyzed using validated liquid chromatography-tandem mass spectrometry (LC-MS/MS) methods. […]
QUANTITY_NAME: half-life (h)
The reply should be a number in h, with the unit left off.

Documented half-life of CNC(C)Cc1ccc2c(c1)OCO2 (stereo not shown) [MDMA, 3,4-methylenedioxymethamphetamine] : 8.7

* * *

TEST_DETAILS: Study MPKF: plasma pharmacokinetics of MDMA and MDA, single 120 mg MDMA·HCl, fasted/fed
Format: in vivo, human
DETAILS: human, plasma, oral, 120 mg, fasted treatment group; 48 h; read-out: PK plasma concentration, Mean
QUANTITY_NAME: concentration at 48 h (ng/mL)
The reply should be a number in ng/mL, with the unit left off.

Documented concentration at 48 h of CNC(C)Cc1ccc2c(c1)OCO2 (stereo not shown) : 7.61

* * *

TEST_DETAILS: Study MPKF: plasma pharmacokinetics of MDMA and MDA, single 120 mg MDMA·HCl, fasted/fed
Assay type: in vivo, human
DETAILS: human, plasma, oral, 120 mg, Fasted; read-out: AUC0-t, Geometric LSM
QUANTITY_NAME: AUC(0-t) (ng·h/mL)
The reply should be a number in ng·h/mL, with the unit left off.

Documented AUC(0-t) of CNC(C)Cc1ccc2c(c1)OCO2 (centres unmarked) : 3120

Documented AUC(0-t) of CC(N)Cc1ccc2c(c1)OCO2 (centres unmarked) : 282

* * *

TEST_DETAILS: Study MPKF: plasma pharmacokinetics of MDMA and MDA, single 120 mg MDMA·HCl, fasted/fed
Format: in vivo, human
DETAILS: human, plasma, oral, 120 mg, fed treatment group; 8 h; read-out: PK plasma concentration, Mean
Experimental: The MPKF was a Phase 1, open-label, randomized sequence, multi-dose, 2-period crossover food effect study in 16 healthy individuals. The MPKF study evaluated plasma concentrations of both MDMA and the active metabolite 3,4-methylenedioxyamphetamine (MDA). […] Sample Collection: Blood samples were collected at various time points up to 72 hours after dosing. The samples were analyzed using validated liquid chromatography-tandem mass spectrometry (LC-MS/MS) methods. […]
QUANTITY_NAME: concentration at 8 h (ng/mL)
The reply should be a number in ng/mL, with the unit left off.

Documented concentration at 8 h of CNC(C)Cc1ccc2c(c1)OCO2 (stereo not shown) [MDMA, 3,4-methylenedioxymethamphetamine] : 181

* * *

TEST_DETAILS: Particle size of MDMA measured by laser diffraction
Type: physicochemical
QUANTITY_NAME: Dv10 (μm)
The reply should be a number in μm, with the unit left off.

Documented Dv10 of CNC(C)Cc1ccc2c(c1)OCO2.Cl (stereo not drawn) [CJS194-2] : 20.0

Documented Dv10 of CNC(C)Cc1ccc2c(c1)OCO2.Cl (stereo not drawn) [CJS194-4] : 23.8

Documented Dv10 of CNC(C)Cc1ccc2c(c1)OCO2.Cl (stereo not drawn) [Input 201101] : 376

Documented Dv10 of CNC(C)Cc1ccc2c(c1)OCO2.Cl (stereo not drawn) [CJS194-1] : 29.0

Documented Dv10 of CNC(C)Cc1ccc2c(c1)OCO2.Cl (stereo not drawn) [CJS194-5] : 23.4

Documented Dv10 of CNC(C)Cc1ccc2c(c1)OCO2.Cl (stereo not drawn) [CJS194-3] : 20.9

* * *

TEST_DETAILS: Study MPKF: plasma pharmacokinetics of MDMA and MDA, single 120 mg MDMA·HCl, fasted/fed
Type: in vivo, human
DETAILS: human, plasma, oral, 120 mg, fed treatment group; 4 h; read-out: PK plasma concentration, Median
QUANTITY_NAME: concentration at 4 h (µg/mL)
The reply should be a number in µg/mL, with the unit left off.

Documented concentration at 4 h of CNC(C)Cc1ccc2c(c1)OCO2 (stereo not shown) [MDMA, 3,4-methylenedioxymethamphetamine] : 0.225

* * *

TEST_DETAILS: Study MPKF: plasma pharmacokinetics of MDMA and MDA, single 120 mg MDMA·HCl, fasted/fed
Format: in vivo, human
DETAILS: human, plasma, oral, 120 mg, Fasted; read-out: AUC0-inf, Geometric LSM
Kindly state AUC(0-inf) for each of the entries shown.
The reply should be a number in ng·h/mL, with the unit left off.

Documented AUC(0-inf) of CC(N)Cc1ccc2c(c1)OCO2 (centres unmarked) : 331

Documented AUC(0-inf) of CNC(C)Cc1ccc2c(c1)OCO2 (centres unmarked) : 3380

* * *

TEST_DETAILS: Study MPKF: plasma pharmacokinetics of MDMA and MDA, single 120 mg MDMA·HCl, fasted/fed
Type: in vivo, human
DETAILS: human, plasma, oral, 120 mg, fed treatment group; 12 h; read-out: PK plasma concentration, Median
QUANTITY_NAME: concentration at 12 h (ng/mL)
The reply should be a number in ng/mL, with the unit left off.

Documented concentration at 12 h of CNC(C)Cc1ccc2c(c1)OCO2 (stereo not shown) [MDMA, 3,4-methylenedioxymethamphetamine] : 132

* * *

TEST_DETAILS: Study MPKF: plasma pharmacokinetics of MDMA and MDA, single 120 mg MDMA·HCl, fasted/fed
Type: in vivo, human
DETAILS: human, plasma, oral, 120 mg, fasted treatment group; 1 h; read-out: PK plasma concentration, Median
QUANTITY_NAME: concentration at 1 h (ng/mL)
The reply should be a number in ng/mL, with the unit left off.

Documented concentration at 1 h of CNC(C)Cc1ccc2c(c1)OCO2 (stereo not shown) [MDMA, 3,4-methylenedioxymethamphetamine] : 124

* * *

TESTED_SYSTEM: human ether-à-go-go-related gene (hERG) potassium current (Homo sapiens, UniProt Q12809)
Sequence (Q12809 whole entry): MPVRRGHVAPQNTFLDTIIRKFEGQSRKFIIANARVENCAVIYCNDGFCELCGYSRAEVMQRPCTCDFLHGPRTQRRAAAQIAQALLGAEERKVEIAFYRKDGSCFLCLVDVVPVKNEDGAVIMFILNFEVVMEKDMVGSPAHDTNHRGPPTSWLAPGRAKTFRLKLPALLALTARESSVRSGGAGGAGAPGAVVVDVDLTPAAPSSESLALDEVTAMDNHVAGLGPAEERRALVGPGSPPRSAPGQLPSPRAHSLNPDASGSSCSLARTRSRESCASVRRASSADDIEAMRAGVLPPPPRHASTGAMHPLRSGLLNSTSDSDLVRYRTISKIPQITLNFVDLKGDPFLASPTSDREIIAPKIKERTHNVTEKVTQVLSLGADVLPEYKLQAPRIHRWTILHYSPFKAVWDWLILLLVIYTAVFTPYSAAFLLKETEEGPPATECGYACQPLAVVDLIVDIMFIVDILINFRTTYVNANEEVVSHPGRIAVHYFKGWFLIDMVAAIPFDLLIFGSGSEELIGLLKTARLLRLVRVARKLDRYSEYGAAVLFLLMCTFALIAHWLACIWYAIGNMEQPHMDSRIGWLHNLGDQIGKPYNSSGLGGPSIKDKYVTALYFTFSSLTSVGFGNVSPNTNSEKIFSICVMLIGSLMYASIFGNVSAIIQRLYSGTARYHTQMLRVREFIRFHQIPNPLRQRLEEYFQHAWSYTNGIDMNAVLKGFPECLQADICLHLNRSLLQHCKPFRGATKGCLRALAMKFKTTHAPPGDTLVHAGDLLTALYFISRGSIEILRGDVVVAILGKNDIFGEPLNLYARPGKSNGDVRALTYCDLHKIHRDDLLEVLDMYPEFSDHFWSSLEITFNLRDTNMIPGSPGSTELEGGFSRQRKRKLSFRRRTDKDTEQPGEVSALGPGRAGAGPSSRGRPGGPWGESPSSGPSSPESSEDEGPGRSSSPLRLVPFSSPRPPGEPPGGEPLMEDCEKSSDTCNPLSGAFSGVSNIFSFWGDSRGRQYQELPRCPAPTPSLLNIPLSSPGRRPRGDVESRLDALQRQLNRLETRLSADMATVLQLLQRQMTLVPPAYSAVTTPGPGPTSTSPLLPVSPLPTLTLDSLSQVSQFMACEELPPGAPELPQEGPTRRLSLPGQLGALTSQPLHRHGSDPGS
TEST_DETAILS: hERG potassium current inhibition
QUANTITY_NAME: pIC50
Formally, pIC50 is defined as -log10 of the concentration c, with c in mol/L.

Documented pIC50 of CNC(C)Cc1ccc2c(c1)OCO2 (stereo not shown) [MDMA, 3,4-methylenedioxymethamphetamine] : 3.69

* * *

TEST_DETAILS: Study MPKF: plasma pharmacokinetics of MDMA and MDA, single 120 mg MDMA·HCl, fasted/fed
Format: in vivo, human
DETAILS: human, plasma, oral, 120 mg, fed treatment group; 6 h; read-out: PK plasma concentration, Mean
QUANTITY_NAME: concentration at 6 h (ng/mL)
The reply should be a number in ng/mL, with the unit left off.

Documented concentration at 6 h of CNC(C)Cc1ccc2c(c1)OCO2 (stereo not shown) [MDMA, 3,4-methylenedioxymethamphetamine] : 215

* * *

TEST_DETAILS: Study MPKF: plasma pharmacokinetics of MDMA and MDA, single 120 mg MDMA·HCl, fasted/fed
Type: in vivo, human
DETAILS: human, plasma, oral, 120 mg, fed treatment group; .5 h; read-out: PK plasma concentration, Geom. Mean
Procedure: The MPKF was a Phase 1, open-label, randomized sequence, multi-dose, 2-period crossover food effect study in 16 healthy individuals. The MPKF study evaluated plasma concentrations of both MDMA and the active metabolite 3,4-methylenedioxyamphetamine (MDA). […] Sample Collection: Blood samples were collected at various time points up to 72 hours after dosing. The samples were analyzed using validated liquid chromatography-tandem mass spectrometry (LC-MS/MS) methods. […]
QUANTITY_NAME: concentration at 0.5 h

Documented concentration at 0.5 h of CNC(C)Cc1ccc2c(c1)OCO2 (stereo not shown) : 18.5 ng/mL

* * *

TEST_DETAILS: Study MPKF: plasma pharmacokinetics of MDMA and MDA, single 120 mg MDMA·HCl, fasted/fed
Type: in vivo, human
DETAILS: human, plasma, oral, 120 mg, fasted treatment group; 48 h; read-out: PK plasma concentration, Geom. Mean
QUANTITY_NAME: concentration at 48 h (ng/mL)
The reply should be a number in ng/mL, with the unit left off.

Documented concentration at 48 h of CNC(C)Cc1ccc2c(c1)OCO2 (stereo not shown) : 12.3
